- target: N-acetyllactosaminide beta-1,3-N-acetylglucosaminyltransferase 4 (Homo sapiens, UniProt Q9C0J1)
- Sequence (Q9C0J1 whole entry): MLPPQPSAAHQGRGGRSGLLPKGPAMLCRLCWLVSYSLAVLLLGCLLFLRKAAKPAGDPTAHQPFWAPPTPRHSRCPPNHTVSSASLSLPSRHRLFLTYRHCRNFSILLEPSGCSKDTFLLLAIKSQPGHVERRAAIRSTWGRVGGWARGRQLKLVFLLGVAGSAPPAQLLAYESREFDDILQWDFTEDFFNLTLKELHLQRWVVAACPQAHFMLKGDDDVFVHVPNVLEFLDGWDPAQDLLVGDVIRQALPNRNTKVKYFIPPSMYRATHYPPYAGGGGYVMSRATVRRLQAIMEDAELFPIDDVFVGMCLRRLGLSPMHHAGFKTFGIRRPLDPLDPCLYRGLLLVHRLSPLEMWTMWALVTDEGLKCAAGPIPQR
A collection of compounds and their measured IC50

mol: C[C@H](NC(=O)c1ccc2[nH]c(=O)n([C@H](C)C(C)(C)C)c2c1)c1ncc(Cl)cn1
IC50: > 250 µM
--
mol: C[C@H](NC(=O)c1ccc2[nH]c(=O)n([C@H](C)C(C)(C)C)c2c1)c1ccc(Br)cn1
IC50: 169 µM
--
mol: C[C@H](NC(=O)c1ccc2[nH]c(=O)n([C@H](C)C(C)(C)C)c2c1)c1ccc(Cl)cn1
IC50: > 250 µM

###

- target: N-acetyllactosaminide beta-1,3-N-acetylglucosaminyltransferase 2 (Homo sapiens)
- Sequence (Q9NY97 whole entry): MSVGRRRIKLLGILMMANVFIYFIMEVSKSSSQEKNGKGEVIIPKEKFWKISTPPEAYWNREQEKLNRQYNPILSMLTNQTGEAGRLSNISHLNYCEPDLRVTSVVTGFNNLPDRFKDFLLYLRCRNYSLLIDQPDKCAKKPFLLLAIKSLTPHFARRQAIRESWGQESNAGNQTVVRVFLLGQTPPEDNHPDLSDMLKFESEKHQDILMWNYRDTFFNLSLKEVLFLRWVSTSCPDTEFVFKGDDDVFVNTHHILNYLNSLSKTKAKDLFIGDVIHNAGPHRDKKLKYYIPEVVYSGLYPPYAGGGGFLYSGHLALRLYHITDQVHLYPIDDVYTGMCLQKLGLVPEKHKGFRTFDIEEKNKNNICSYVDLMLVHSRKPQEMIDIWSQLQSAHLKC
- assay-overview: Inhibition of B3GNT2 (unknown origin) using N-acetyl-lactosamine and UDP-GlcNAc as substrate incubated for 1.5 to 2 hrs by UDP-Glo based analysis
- reported-conditions: read-out: IC50
property-measured: IC50 (µM)

compound: C[C@H](NC(=O)c1ccc2[nH]c(=O)n([C@H](C)C(C)(C)C)c2c1)c1cnc(C(F)(F)F)nc1
property-measured: IC50
data-value: 0.07
//
compound: C[C@H](NC(=O)c1ccc2[nH]c(=O)n([C@H](C)C(C)(C)C)c2c1)c1ccc(Cl)cn1
property-measured: IC50
data-value: 0.23
//
compound: C[C@@H](n1c(=O)[nH]c2ccc(C3=N[C@](c4ccc(Cl)nc4)(c4ccccn4)NC3=O)cc21)C(C)(C)C
property-measured: IC50
data-value: 0.039
//
compound: C[C@@H](n1c(=O)[nH]c2ccc(C3=NC(c4ccc(Cl)cn4)(c4ccc(Cl)cn4)NC3=O)cc21)C(C)(C)C
property-measured: IC50
data-value: 0.2
//
compound: Cc1[nH]c2cc(NC(=O)c3ccc4[nH]c(=O)n([C@H](C)C(C)(C)C)c4c3)ccc2c1C
property-measured: IC50
data-value: 0.06
//
compound: Cc1ccc([C@H](C)NC(=O)c2ccc3[nH]c(=O)n([C@H](C)C(C)(C)C)c3c2)nc1
property-measured: IC50
data-value: 0.093
//
compound: C[C@@H](n1c(=O)[nH]c2ccc(C3=NOC(C)(c4ccccc4)N3)cc21)C(C)(C)C (stereo not given in full)
property-measured: IC50
data-value: 0.9
//
compound: Cc1[nH]c2ccc([C@]3(C)N=C(c4ccc5[nH]c(=O)n([C@H](C)C(C)(C)C)c5c4)C(=O)N3)cc2c1C
property-measured: IC50
data-value: 1.01
//
compound: C[C@H](NC(=O)c1ccc2[nH]c(=O)n([C@H](C)C(C)(C)C)c2c1)c1cnc(Cl)nc1
property-measured: IC50
data-value: 0.076
//
compound: Cc1ccc([C@]2(C)NC(c3ccc4[nH]c(=O)n([C@H](C)C(C)(C)C)c4c3)=NC2=O)cn1
property-measured: IC50
data-value: 0.029
